Source listed as ChEMBL document CHEMBL1135426.

Measured pKi, listed per entry for reference.
test-target: UniProt P61169
Sequence (P61169 whole entry): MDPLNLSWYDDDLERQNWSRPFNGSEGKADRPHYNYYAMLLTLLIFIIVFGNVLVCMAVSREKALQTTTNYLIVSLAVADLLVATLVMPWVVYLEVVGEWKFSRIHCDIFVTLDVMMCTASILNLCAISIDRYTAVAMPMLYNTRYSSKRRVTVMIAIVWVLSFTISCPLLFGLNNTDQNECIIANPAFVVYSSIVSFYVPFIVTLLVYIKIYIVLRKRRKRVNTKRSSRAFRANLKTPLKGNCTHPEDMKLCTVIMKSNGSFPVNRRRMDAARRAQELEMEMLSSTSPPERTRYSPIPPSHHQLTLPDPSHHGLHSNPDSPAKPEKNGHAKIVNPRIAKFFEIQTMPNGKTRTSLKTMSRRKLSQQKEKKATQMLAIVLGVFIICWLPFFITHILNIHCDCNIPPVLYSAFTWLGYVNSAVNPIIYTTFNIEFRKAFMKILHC
assay-explanation: Binding affinity (Ki) at Dopamine receptor D2 using rat caudate cells with nemonapride (0.075 nM) as a radioligand and […] as a blank agent
Please express pKi as -log10 of the molar concentration.

The examples below pair each entry with its known result.
structure-smiles	pKi
O=C(c1ccc(F)cc1)C1CCN(CCc2ccccc2I)CC1	8.89
O=C(c1ccc(F)cc1)C1CCN(CCc2ccc(I)cc2)CC1	6.75
O=C(c1ccc(F)cc1)C1CCN(CCc2cccc(I)c2)CC1	7.29

Now examine the next entry.
Find the recorded pKi belonging to O=C(c1ccc(F)cc1)C1CCN(CCc2ccc(F)cc2)CC1 and report it. 6.34

----------
test-target: 5-hydroxytryptamine receptor 2A (Homo sapiens, UniProt P28223)
Sequence (P28223 whole entry): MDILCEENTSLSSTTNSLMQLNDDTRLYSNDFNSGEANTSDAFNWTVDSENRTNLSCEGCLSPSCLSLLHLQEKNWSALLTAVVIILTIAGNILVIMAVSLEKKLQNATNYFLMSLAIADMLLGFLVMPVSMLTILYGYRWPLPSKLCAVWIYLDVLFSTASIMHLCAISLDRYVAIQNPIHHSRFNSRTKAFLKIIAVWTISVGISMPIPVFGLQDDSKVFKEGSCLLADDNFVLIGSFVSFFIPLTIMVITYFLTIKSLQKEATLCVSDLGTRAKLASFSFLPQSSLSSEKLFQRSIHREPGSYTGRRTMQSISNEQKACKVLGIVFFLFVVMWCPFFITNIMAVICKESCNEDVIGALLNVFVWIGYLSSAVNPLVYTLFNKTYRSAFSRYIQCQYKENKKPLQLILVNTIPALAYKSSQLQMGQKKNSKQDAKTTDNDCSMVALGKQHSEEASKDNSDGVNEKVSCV
assay-explanation: Binding affinity against 5-hydroxytryptamine 2A receptor in humans
endpoint-name: pKi
A value of pKi is the negative decimal logarithm of a concentration given in moles per litre.

Would you mind telling me what pKi value was observed for O=C(c1ccc(F)cc1)C1CCN(CCn2c(=S)[nH]c3ccccc3c2=O)CC1 ? 9.52

----------
Sequence of the target: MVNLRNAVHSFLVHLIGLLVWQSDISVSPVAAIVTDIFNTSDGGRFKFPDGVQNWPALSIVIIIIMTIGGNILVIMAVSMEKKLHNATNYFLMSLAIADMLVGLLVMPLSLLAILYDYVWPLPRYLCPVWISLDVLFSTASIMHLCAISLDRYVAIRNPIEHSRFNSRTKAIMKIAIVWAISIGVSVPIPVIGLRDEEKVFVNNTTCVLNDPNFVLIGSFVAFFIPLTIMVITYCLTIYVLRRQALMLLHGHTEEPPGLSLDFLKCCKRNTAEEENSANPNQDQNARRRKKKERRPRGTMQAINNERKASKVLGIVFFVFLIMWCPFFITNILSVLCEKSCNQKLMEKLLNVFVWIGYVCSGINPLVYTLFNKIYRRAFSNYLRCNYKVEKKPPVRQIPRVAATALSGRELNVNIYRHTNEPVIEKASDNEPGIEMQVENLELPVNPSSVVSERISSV
endpoint-name: pKi
// pKi: -log10(molar conc.)

Entry under review: O=C(c1ccc(F)cc1)C1CCN(CCc2ccccc2I)CC1 . Reported pKi? 7.45

Again, but for O=C(c1ccc(F)cc1)C1CCN(CCc2ccc(I)cc2)CC1 6.84

Another compound to check: OC(c1ccc(F)cc1)C1CCN(CCc2ccc(F)cc2)CC1 (stereo not drawn) 6.30

----------
test-target: 5-hydroxytryptamine receptor 2A (Homo sapiens, UniProt P28223)
assay-explanation: Tested on genetically transfected COS7 cell membranes selectively expressing human 5-hydroxytryptamine 2A receptor, using [3H]ketanserin as radioligand
Format: cell-based, COS-7
pKi: −log10 of the molar value.
Decision: pKi >= 8 yields yes, all other cases yield no.

compound	assigned-label
O=C(c1ccc(F)cc1)C1CCN(CCc2ccccc2I)CC1	yes
O=C(c1ccc(F)cc1)C1CCN(Cc2ccc(I)cc2)CC1	no
OC(c1ccc(F)cc1)C1CCN(CCc2ccccc2I)CC1 (stereo unspecified)	yes

Reported pKi reaches at least 8 for O=C(c1ccc(F)cc1)C1CCN(CCc2cccc(I)c2)CC1 ? yes

# iterate: OC(c1ccc(F)cc1)C1CCN(CCc2ccc(F)cc2)CC1 (stereo unspecified) yes

Follow-up entry: O=C(c1ccc(F)cc1)C1CCN(Cc2ccccc2I)CC1 no

// next record OC(c1ccc(F)cc1)C1CCN(Cc2ccccc2I)CC1 (stereo unspecified) no

Here is the next compound: OC(c1ccc(F)cc1)C1CCN(Cc2ccc(I)cc2)CC1 (stereo unspecified) no

----------
test-target: UniProt P50406
Sequence (P50406 whole entry): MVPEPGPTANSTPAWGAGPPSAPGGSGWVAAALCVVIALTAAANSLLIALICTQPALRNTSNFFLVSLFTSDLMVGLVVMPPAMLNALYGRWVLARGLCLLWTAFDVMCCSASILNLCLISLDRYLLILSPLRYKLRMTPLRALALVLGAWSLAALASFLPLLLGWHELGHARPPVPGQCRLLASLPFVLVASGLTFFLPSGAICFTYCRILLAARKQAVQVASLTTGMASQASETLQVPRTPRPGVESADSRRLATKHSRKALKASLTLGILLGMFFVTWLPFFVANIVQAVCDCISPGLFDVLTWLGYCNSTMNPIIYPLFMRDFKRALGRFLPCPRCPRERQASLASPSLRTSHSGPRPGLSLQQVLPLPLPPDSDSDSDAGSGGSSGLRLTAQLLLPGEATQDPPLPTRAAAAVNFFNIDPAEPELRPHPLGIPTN
endpoint-name: Ki (µM)
Write the value in µM as a bare number.

Returns the measured Ki for the input compound. Input: O=C(c1ccc(F)cc1)C1CCN(CCc2cccc(I)c2)CC1 0.0489

----------
test-target: Adrenergic receptor alpha-2 (Rattus norvegicus, UniProt P22086+P19328+P22909)
assay-explanation: Binding affinity (Ki) at Alpha-2 adrenergic receptor homogenates of whole rat brain were incubated [3H]MK-912 for 80 min at room temperature, using […] as the blank agent
Type: tissue-based
Overview of recorded Ki for various compounds
All answers are understood in nM, so give the number only.

compound	Ki / nM
O=C(c1ccc(F)cc1)C1CCN(CCc2ccc(I)cc2)CC1	381
OC(c1ccc(F)cc1)C1CCN(CCc2ccccc2I)CC1 (stereo unspecified)	813
O=C(c1ccc(F)cc1)C1CCN(CCc2ccc(F)cc2)CC1	614
O=C(c1ccc(F)cc1)C1CCN(CCc2cccc(I)c2)CC1	244
O=C(c1ccc(F)cc1)C1CCN(CCc2ccccc2I)CC1	140

Then this compound:
Name the reported Ki value associated with the compound OC(c1ccc(F)cc1)C1CCN(CCc2ccc(F)cc2)CC1 (stereo unspecified) 1032

----------
test-target: 5-hydroxytryptamine receptor 2A (Homo sapiens, UniProt P28223)
assay-explanation: Tested on genetically transfected COS7 cell membranes selectively expressing human 5-hydroxytryptamine 2A receptor, using [3H]ketanserin as radioligand
Type: cell-based, COS-7
# reported log10 Ki; entries follow
On a log10 scale: recorded Ki, unit nM.

Example compounds with recorded log10 Ki:
compound	log10 Ki
O=C(c1ccc(F)cc1)C1CCN(CCc2ccc(F)cc2)CC1	0.98
O=C(c1ccc(F)cc1)C1CCN(Cc2cccc(I)c2)CC1	1.10
OC(c1ccc(F)cc1)C1CCN(CCc2cccc(I)c2)CC1 (stereo not drawn)	1.12
O=C(c1ccc([N+](=O)[O-])cc1)C1CCN(CCc2ccccc2)CC1	0.97
O=C(c1ccc(F)cc1)C1CCN(CCc2ccc(I)cc2)CC1	0.56
OC(c1ccc(F)cc1)C1CCN(CCc2ccc(I)cc2)CC1 (stereo not drawn)	1.51

Here's the next entry for you.
So what does the record say about log10 Ki for O=[N+]([O-])c1ccc(C(O)C2CCN(CCc3ccccc3)CC2)cc1 (stereo not drawn) ? 0.06
